# EXPERIMENTAL_SYSTEM: GST-tagged human ROCK2 catalytic domain 1-553 (Homo sapiens)
# Construct: GST-tagged human ROCK2 catalytic domain 1-553 from Carna Biosciences (Cat #01-110); purchased Carna Biosciences 01-110; host or cells: baculovirus expression system
# Sequence (O75116 1-553): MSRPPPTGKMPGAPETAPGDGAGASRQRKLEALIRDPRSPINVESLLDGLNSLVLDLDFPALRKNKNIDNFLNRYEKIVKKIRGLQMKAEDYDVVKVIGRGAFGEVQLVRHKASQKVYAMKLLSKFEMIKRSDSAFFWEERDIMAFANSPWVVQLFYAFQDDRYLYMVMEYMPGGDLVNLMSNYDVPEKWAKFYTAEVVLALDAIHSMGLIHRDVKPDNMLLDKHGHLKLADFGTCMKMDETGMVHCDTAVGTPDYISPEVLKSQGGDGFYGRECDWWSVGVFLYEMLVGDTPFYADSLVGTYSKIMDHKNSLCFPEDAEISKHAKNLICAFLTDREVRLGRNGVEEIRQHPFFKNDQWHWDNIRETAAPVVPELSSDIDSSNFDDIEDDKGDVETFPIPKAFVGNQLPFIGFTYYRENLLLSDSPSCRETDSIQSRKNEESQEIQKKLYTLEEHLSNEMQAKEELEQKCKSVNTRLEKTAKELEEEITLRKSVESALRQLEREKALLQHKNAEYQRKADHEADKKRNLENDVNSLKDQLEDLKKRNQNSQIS
# METHOD_DESCRIPTION: Isolated Enzyme Assay, ROCK2 (LANCE Ultra ULight-CREBtide FRET)
# Assay type: biochemical
# CONDITION_DETAILS: isolated enzyme assay; 30 μM highest concentration tested; read-out: Results from Isolated Enzyme Assay IC50 (μM) ROCK2
ASSAY_METRIC: IC50

Below are worked cases with known answers.
Lookup: So what's the measured IC50 for this one? O=C(c1cccc(-c2nsc(Nc3ccc4[nH]ncc4c3Cl)n2)c1)N1CCCC1
Found: 1 to 15 µM

Lookup: Entry under review: O=S(=O)(Nc1cccc(-c2nsc(Nc3ccc4[nH]ncc4c3Cl)n2)c1)c1cccnc1 . Reported IC50?
Found: 1 to 15 µM

Lookup: Given the compound Cn1ccc(C(=O)Nc2cccc(-c3nsc(Nc4ccc5[nH]ncc5c4Cl)n3)c2)n1 , what is its reported IC50?
Found: < 1 µM

Lookup: Item Cc1c(S(=O)(=O)Nc2cccc(-c3nsc(Nc4ccc5[nH]ncc5c4Cl)n3)c2)cnn1C(F)F has what recorded IC50?
Found: 1 to 15 µM

Lookup: Quick one: IC50 for Cc1cc(C(=O)Nc2cc(-c3nsc(Nc4ccc5[nH]ncc5c4Cl)n3)ccn2)n(C)n1 ?
Found: < 1 µM

Next:
Lookup: What value of measured IC50 is listed for O=C(NC1CCC1)c1cc(-c2nsc(Nc3ccc4[nH]ncc4c3Cl)n2)ccc1F ?
Found: < 1 µM

Lookup: What does the data say about its IC50? Entry: CC1COCCN1C(=O)Nc1cc(-c2nsc(Nc3ccc4[nH]ncc4c3Cl)n2)ccn1 (stereo not drawn)
Found: < 1 µM

Lookup: Reported IC50, compound CN(C)C(=O)c1cccc(-c2nsc(Nc3ccc4[nH]ncc4c3Cl)n2)c1 : ____
Found: 1 to 15 µM

Lookup: Any idea what its IC50 is? The compound is Cn1ccnc1C(=O)Nc1cccc(-c2nsc(Nc3ccc4[nH]ncc4c3Cl)n2)c1
Found: < 1 µM

----------
# EXPERIMENTAL_SYSTEM: GST-tagged human ROCK1 catalytic domain 1-477 (Homo sapiens)
# Construct: human ROCK1 catalytic domain 1-477 from Carna Biosciences (cat #01-109); purchased Carna Biosciences 01-109; host or cells: baculovirus expression system
# Sequence (Q13464 1-477): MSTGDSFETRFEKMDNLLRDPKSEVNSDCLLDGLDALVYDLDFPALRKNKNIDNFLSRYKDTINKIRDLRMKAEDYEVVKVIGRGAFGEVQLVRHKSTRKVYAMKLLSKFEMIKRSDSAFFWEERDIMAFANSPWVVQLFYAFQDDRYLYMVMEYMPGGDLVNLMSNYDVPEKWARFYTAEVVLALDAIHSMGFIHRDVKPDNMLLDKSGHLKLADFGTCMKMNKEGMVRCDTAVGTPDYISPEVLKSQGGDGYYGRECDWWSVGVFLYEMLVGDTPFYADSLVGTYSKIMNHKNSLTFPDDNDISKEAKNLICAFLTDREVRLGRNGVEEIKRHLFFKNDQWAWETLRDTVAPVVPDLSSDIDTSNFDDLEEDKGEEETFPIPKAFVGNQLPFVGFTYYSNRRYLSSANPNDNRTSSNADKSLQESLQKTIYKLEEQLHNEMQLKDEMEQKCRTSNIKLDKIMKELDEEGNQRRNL
# METHOD_DESCRIPTION: Isolated Enzyme Assay, ROCK1 (LANCE Ultra ULight-CREBtide FRET)
# Format: biochemical
# CONDITION_DETAILS: isolated enzyme assay; 30 μM highest concentration tested; read-out: Results from Isolated Enzyme Assay IC50 (μM) ROCK1
Parameter IC50: see the listing below.

Lookup: May I ask what IC50 has been recorded for CN1CCC(NC(=O)c2cc(-c3nsc(Nc4ccc5[nH]ncc5c4Cl)n3)ccc2F)CC1 ?
Found: < 1 µM

Lookup: Given COc1ccc(C(=O)Nc2cc(-c3nsc(Nc4ccc5[nH]ncc5c4Cl)n3)ccn2)cc1 , state its recorded IC50.
Found: > 30 µM

Lookup: Name the reported IC50 value associated with the compound CC1(C)CN(c2cccc(-c3nsc(Nc4ccc5[nH]ncc5c4C#N)n3)c2)C(=O)O1
Found: < 1 µM

Further cases:
Lookup: Which IC50 value is on record for Cc1cnc(-c2cncc(-c3nsc(Nc4ccc5[nH]ncc5c4Cl)n3)c2)o1 ?
Found: > 30 µM

Lookup: What value of IC50 has been recorded for this entry: O=C(Nc1cncc(-c2nsc(Nc3ccc4[nH]ncc4c3Cl)n2)c1)c1cocn1
Found: > 30 µM
